# experiment.description: Evaluation of the pharmacokinetics in female Balb/c mice (IV and PO)
# Format: in vivo
# study.conditions: mouse; IV 0.2 mg/kg, female Balb/c mice, plasma
Where a name gives a salt, the structure may show the parent alone.
Items are presented alongside their recorded C0.
// note: answer is a bare numeric in nM

> print(dat)
                                   compound  unit.abbreviation  observed.measurement
1  Cn1cc(-c2ccc3c(c2)ncn3-c2cc(NS(=O)(=O)C3CC3)cc(-c3ccc(F)cc3F)c2)cn1 [Trifluoroacetate of compound A, reference compound]                 nM                   563

Let us move to another entry and its C0.
Notebook: Cn1cc(-c2ccn3c(-c4cc(NS(C)(=O)=O)nc(-c5ccc(F)cc5F)c4)cnc3c2)cn1 [Trifluoroacetate salt of compound 7] , C0 read as 735

====

# experiment.description: Evaluation of the pharmacokinetics in female Balb/c mice (IV and PO)
# Assay type: in vivo
# study.conditions: mouse, plasma; IV 2 mg/kg, female Balb/c mice
Counter-ions that a name gives are not always drawn.
quantity.name: clearance (mL/min/kg)
State just the number; it will be interpreted in mL/min/kg.

clearance in this record for Cn1cc(-c2ccn3c(-c4cc(NS(=O)(=O)C5CC5)nc(-c5ccc(F)cc5F)c4)cnc3c2)cn1 [Trifluoroacetate salt of compound 1] : 4.82

====

Form field: MRT last (one value per entry).
# experiment.description: Evaluation of the pharmacokinetics in female Balb/c mice (IV and PO)
# Type: in vivo
# study.conditions: mouse, plasma; IV 0.2 mg/kg, female Balb/c mice; read-out: MRT0-last
Structures can show the parent of a compound that is named as a salt.
Units required after the number.

> print(dat)
                                   compound  quantity.name  observed.measurement
1  Cn1cc(-c2ccn3c(-c4cc(NS(C)(=O)=O)nc(-c5ccc(F)cc5F)c4)cnc3c2)cn1 [Trifluoroacetate salt of compound 7]       MRT last                1.08 h

Consider the record given below.
# MRT last (compound: Cn1cc(-c2ccc3c(c2)ncn3-c2cc(NS(=O)(=O)C3CC3)cc(-c3ccc(F)cc3F)c2)cn1 [Trifluoroacetate of compound A, reference compound] ) is 1.21 h

====

Where a name gives a salt, the structure may show the parent alone.
The next entries give measured IC50 for human FGFR2 (Homo sapiens (Human)).
Field: numeric (nM). Do not append units.

Answered examples (7):
> print(dat)
                                   compound  observed.measurement
1  CCOC(=O)Nc1cc(-c2cnc3cc(-c4cnn(C)c4)ccn23)cc(-c2ccc(F)cc2F)n1 [Trifluoroacetate salt of compound 3]                  3.26
2  CCOC(=O)Nc1cc(-c2cnc3cc(-c4cnn(C)c4)ccn23)cc(-c2ccc(F)cc2C)n1 [Trifluoroacetate salt of compound 4]                  45.2
3  Cn1cc(-c2ccc3c(c2)ncn3-c2cc(NS(C)(=O)=O)cc(-c3ccc(F)cc3F)c2)cn1 [Trifluoroacetate of compound B, reference compound]                  22.6
4  CCOC(=O)Nc1cc(-c2cnc3cc(-c4cnn(C)c4C)ccn23)cc(-c2ccc(F)cc2F)n1 [Trifluoroacetate salt of compound 12]                  19.4
5  Cn1cc(-c2ccn3c(-c4cc(NCC5COC(C)(C)O5)nc(-c5ccc(F)cc5F)c4)cnc3c2)cn1 (centres unmarked) [Compound 11]                  2.27
6  Cn1cc(-c2ccn3c(-c4cc(NS(=O)(=O)C5CC5)nc(-c5ccc(F)cc5F)c4)cnc3c2)cn1 [Trifluoroacetate salt of compound 1]                  2.86
7  Cn1cc(-c2ccn3c(-c4cc(NC5CCOCC5)nc(-c5ccc(F)cc5F)c4)cnc3c2)cn1 [Compound 10]                  17.1

Next, consider the following compound.
Noted for Cn1cc(-c2ccn3c(-c4cc(NS(C)(=O)=O)nc(-c5ccc(F)cc5F)c4)cnc3c2)cn1 [Trifluoroacetate salt of compound 7] : its IC50 reads 3.22
